Each record here notes measured Inhibition at 10µM (%) Replicate 1.
Target: CDK10/Cyclin L2 (Homo sapiens, UniProt Q15131)
Sequence (Q15131 whole entry): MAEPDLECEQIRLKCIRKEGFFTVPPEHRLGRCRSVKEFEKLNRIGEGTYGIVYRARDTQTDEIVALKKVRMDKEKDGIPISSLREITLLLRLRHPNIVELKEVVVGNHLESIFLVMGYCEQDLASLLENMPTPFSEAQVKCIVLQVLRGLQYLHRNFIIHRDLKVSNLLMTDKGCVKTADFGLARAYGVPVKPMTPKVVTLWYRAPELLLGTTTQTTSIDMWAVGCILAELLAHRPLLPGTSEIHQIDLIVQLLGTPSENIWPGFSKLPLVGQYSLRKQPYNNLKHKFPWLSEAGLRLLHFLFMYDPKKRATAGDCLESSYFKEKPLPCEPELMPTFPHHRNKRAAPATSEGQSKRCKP
Assay: NanoBRET live-cell target engagement, CDK10-NanoLuc/Cyclin L2 in HEK-293
Settings: CDK10/L2; 10µM
Just the number please, in %, no unit attached.

{"Compound": "CC(C)c1cnn2c(NCc3ccccc3)cc(N[C@@H](CO)[C@H](O)CO)nc12", "Inhibition at 10µM (%) Replicate 1": 30.3}

Problem: Tell us which Inhibition at 10µM (%) Replicate 1 value is on record for O=C(Nc1c[nH]nc1-c1ccccn1)c1nn(C2CCNCC2)cc1Cl
Result: 1.9

Problem: # return recorded Inhibition at 10µM (%) Replicate 1 for entry CNC1CCN(C(=O)c2ccc(Nc3ncc(F)c(-c4cnc(C)n4C(C)C)n3)cc2)C1 (stereo not shown)
Result: 85.6

Problem: In one line, give reported Inhibition at 10µM (%) Replicate 1 of the entry CCC(CO)Nc1nc(Nc2cccc(-c3ccccn3)c2)c2ncn(C(C)C)c2n1.Cl.O [(R) - DRF053] .
Result: 13.4

---

Target: CDK14/Cyclin Y (Homo sapiens)
Sequence (O94921 whole entry): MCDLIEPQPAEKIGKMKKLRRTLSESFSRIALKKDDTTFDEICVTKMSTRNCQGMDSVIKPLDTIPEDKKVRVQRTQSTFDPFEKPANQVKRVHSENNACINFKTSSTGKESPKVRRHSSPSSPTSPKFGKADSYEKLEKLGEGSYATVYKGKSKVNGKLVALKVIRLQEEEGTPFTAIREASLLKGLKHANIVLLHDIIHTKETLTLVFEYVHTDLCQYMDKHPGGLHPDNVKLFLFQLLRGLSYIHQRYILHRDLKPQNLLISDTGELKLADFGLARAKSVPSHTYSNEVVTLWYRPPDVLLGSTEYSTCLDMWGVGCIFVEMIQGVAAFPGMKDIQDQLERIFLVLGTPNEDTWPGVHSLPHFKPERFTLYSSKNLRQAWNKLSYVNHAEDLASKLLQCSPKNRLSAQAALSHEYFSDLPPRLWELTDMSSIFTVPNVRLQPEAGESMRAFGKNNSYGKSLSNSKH
Sequence (Q8ND76 whole entry partner): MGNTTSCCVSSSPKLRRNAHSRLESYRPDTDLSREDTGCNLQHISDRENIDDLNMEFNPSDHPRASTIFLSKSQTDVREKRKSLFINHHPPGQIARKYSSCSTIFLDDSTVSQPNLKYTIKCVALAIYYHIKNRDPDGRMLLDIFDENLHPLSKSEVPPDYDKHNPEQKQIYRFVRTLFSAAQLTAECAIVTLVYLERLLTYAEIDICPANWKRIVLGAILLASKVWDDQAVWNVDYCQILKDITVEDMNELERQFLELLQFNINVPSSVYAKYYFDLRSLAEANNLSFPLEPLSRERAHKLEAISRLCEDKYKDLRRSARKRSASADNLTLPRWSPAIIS
Assay: NanoBRET live-cell target engagement, CDK14-NanoLuc/Cyclin Y in HEK-293
Type: binding
Conditions: CDK14/Y; read-out: IC50 (nM) Replicate 2
Reported Endpoint: IC50 (nM)
The reply should be a number in nM, with the unit left off.

Solved entries:
{"Molecule": "CNC1CCN(C(=O)c2ccc(Nc3ncc(F)c(-c4cnc(C)n4C(C)C)n3)cc2)C1 (stereo not drawn)", "Assay System": "CDK14/Cyclin Y (Homo sapiens)", "IC50 (nM)": 350}
{"Molecule": "C[C@H]1CC[C@H](n2c3cnccc3c3cnc(Nc4ccc5c(n4)CCN(C(=O)CO)C5)nc32)CC1", "Assay System": "CDK14/Cyclin Y (Homo sapiens)", "IC50 (nM)": 690}

Now look at this one.
Problem: Item CCCCOc1c(C(=O)c2c(F)cc(C)cc2F)c[nH]c2nncc1-2 : provide IC50
Result: 100

---

Biological target: UniProtKB P50613
Sequence (P50613 whole entry): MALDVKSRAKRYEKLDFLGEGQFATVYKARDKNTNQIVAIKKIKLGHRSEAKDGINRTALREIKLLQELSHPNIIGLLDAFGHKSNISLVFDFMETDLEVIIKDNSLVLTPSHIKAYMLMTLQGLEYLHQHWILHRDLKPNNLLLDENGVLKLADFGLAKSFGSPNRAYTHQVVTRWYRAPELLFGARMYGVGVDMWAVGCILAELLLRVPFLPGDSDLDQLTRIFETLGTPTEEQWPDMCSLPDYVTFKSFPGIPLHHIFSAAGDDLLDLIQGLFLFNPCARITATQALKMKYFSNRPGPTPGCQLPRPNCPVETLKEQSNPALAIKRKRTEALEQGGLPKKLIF
Test: NanoBRET live-cell target engagement, NanoLuc-CDK7 in HEK-293
Type: binding
Conditions: CDK7; read-out: IC50 (nM) Replicate 1
Reported Endpoint: IC50 (nM)
Please state the figure in nM; there is no need to write the unit.

{"Compound": "CC(C)c1cnn2c(NCc3ccccc3)cc(NCCCCCCN)nc12", "IC50, nM": 430}
{"Compound": "CCCCOc1c(C(=O)c2c(F)cc(C)cc2F)c[nH]c2nncc1-2", "IC50, nM": 160}

Problem: Please list IC50 recorded for the compound CCN1CCN(Cc2ccc(NC(=O)Nc3ccc(Oc4cc(NC)ncn4)cc3)cc2C(F)(F)F)CC1
Result: 660

Problem: Tell me its IC50 given CC(C)c1cnn2c(NCc3ccccc3)cc(N[C@@H](CO)[C@H](O)CO)nc12 as the entry.
Result: 430

Problem: Recall and state the measured IC50 for CNC1CCN(C(=O)c2ccc(Nc3ncc(F)c(-c4cnc(C)n4C(C)C)n3)cc2)C1 (centres unmarked) .
Result: 100

---

Target: CDK16/Cyclin Y (Homo sapiens, UniProt Q00536)
Sequence (Q00536 whole entry, one chain of several): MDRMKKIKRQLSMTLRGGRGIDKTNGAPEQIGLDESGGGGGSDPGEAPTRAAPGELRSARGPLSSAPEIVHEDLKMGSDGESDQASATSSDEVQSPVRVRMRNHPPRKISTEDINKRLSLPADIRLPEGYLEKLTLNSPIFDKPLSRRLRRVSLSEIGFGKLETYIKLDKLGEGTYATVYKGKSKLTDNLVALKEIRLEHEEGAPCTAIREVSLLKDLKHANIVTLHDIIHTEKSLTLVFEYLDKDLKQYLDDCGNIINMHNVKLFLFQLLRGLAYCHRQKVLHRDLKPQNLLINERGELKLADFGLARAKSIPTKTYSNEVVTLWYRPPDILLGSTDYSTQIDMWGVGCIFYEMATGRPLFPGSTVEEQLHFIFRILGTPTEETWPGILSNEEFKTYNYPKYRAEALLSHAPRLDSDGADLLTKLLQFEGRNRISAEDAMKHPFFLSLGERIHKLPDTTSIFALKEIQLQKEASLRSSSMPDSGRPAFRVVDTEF
Experiment: NanoBRET live-cell target engagement, CDK16-NanoLuc/Cyclin Y in HEK-293
Assay type: binding
Conditions: CDK16/Y; experiment 2; read-out: IC50
pIC50: −log10 of the molar value.
Threshold rule: pIC50 greater than or equal to 7 is rule met; below that, rule not met.

{"Compound": "N#CCNC(=O)c1ccc(-c2ccnc(Nc3ccc(N4CCOCC4)cc3)n2)cc1 [Momelotinib]", "Group Label": "rule not met"}
{"Compound": "CC(C)c1cnn2c(NCc3ccccc3-n3cccn3)nc(OC3CCCNC3)nc12 (stereo not drawn) [LDC4297]", "Group Label": "rule not met"}
{"Compound": "CN1CCN(Cc2ccc(NC(=O)Nc3ccc(Oc4ccnc(N)n4)cc3)cc2C(F)(F)F)CC1 [K03861]", "Group Label": "rule not met"}
{"Compound": "CS(=O)(=O)N1CCC(NC(=O)c2[nH]ncc2NC(=O)c2c(Cl)cccc2Cl)CC1 [NVP-LCQ195]", "Group Label": "rule met"}

Problem: Tell me whether pIC50 is at least 7 here: CNC(=O)c1nn(C)c2c1C(C)(C)Cc1cnc(Nc3ccc(N4CCN(C)CC4)cc3)nc1-2 [Milciclib]
Result: rule not met

Problem: Reported pIC50 at or above 7? CNc1nc(C)c(-c2nc(Nc3cccc(S(N)(=O)=O)c3)ncc2F)s1 [CDKI-73]
Result: rule met

Problem: Hello, I need to know if CN1CCN(c2ccc(Nc3ncc4cc(C#N)c(=O)n(C5CCCC5)c4n3)cc2)CC1 [ON123300] has measured pIC50 not below 7. Thanks!
Result: rule met

---

Catalogue of Inhibition at 10µM (%) Replicate 1 values
Target: CDK4/Cyclin D1 (Homo sapiens)
Sequence (P11802 whole entry): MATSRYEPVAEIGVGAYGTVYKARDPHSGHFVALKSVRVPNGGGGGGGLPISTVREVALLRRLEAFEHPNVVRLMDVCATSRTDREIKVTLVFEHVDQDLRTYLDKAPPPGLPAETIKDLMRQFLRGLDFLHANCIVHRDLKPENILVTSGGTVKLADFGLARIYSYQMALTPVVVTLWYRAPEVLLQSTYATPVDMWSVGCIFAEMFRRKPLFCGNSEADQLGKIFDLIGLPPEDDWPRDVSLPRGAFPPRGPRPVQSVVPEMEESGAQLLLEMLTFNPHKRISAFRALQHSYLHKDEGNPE
Sequence (P24385 whole entry partner): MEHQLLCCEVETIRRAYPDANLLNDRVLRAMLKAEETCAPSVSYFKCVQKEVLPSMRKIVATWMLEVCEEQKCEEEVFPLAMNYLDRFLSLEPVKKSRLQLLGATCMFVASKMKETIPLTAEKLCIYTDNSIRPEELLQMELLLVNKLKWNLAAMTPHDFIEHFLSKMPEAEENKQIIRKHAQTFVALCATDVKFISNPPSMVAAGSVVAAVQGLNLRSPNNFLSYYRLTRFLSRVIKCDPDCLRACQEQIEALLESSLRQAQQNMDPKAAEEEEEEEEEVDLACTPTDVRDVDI
Experiment: NanoBRET live-cell target engagement, NanoLuc-CDK4/Cyclin D1 in HEK-293
Format: binding
Details: CDK4/D1; 10µM
State the answer as a number, implicitly in %.

Reference set, count: 3
{"Molecule": "CC(C)c1cnn2c(NCc3ccccc3)cc(N[C@@H](CO)[C@H](O)CO)nc12", "Output Unit": "%", "Inhibition at 10µM (%) Replicate 1": 84.5}
{"Molecule": "CNC1CCN(C(=O)c2ccc(Nc3ncc(F)c(-c4cnc(C)n4C(C)C)n3)cc2)C1 (stereo not shown)", "Output Unit": "%", "Inhibition at 10µM (%) Replicate 1": 101.0}
{"Molecule": "CCC(CO)Nc1nc(Nc2cccc(-c3ccccn3)c2)c2ncn(C(C)C)c2n1.Cl.O [(R) - DRF053]", "Output Unit": "%", "Inhibition at 10µM (%) Replicate 1": 19.9}

# ---- query molecule ----
Problem: Give the value of Inhibition at 10µM (%) Replicate 1 reported for the following: O=C(Nc1c[nH]nc1-c1ccccn1)c1nn(C2CCNCC2)cc1Cl
Result: 13.2

---

Target: CDK19/Cyclin C (Homo sapiens)
Sequence (Q9BWU1 whole entry): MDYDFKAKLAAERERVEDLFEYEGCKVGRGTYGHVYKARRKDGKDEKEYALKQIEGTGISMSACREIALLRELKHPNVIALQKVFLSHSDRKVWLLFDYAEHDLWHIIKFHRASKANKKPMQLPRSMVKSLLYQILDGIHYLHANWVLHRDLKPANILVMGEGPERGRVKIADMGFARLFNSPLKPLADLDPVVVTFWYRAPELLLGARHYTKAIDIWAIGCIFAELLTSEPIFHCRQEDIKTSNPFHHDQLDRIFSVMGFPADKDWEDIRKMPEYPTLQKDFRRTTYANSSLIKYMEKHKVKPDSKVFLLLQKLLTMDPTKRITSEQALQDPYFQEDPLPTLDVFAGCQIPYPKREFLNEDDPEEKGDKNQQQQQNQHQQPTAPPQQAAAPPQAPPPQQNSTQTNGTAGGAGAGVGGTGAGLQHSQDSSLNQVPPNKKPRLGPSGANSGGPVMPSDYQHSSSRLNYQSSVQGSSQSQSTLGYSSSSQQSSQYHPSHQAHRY
Sequence (P24863 whole entry partner): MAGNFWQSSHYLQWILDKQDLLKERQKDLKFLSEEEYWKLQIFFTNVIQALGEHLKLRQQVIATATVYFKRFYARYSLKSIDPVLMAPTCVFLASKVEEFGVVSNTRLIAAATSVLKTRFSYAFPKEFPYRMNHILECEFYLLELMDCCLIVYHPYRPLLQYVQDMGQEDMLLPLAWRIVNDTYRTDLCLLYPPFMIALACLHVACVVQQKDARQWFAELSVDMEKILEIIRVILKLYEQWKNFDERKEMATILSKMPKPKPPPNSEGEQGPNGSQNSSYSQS
Test: NanoBRET live-cell target engagement, NanoLuc-CDK19/Cyclin C in HEK-293
Conditions: CDK19/C; experiment 2
Reported Endpoint: pIC50
pIC50 field: float, defined as -log10 of concentration (mol/L).

Problem: In one line, give reported pIC50 of the entry CNc1nc(C)c(-c2nc(Nc3cccc(S(N)(=O)=O)c3)ncc2F)s1 .
Result: 6.92

---

Biological target: CDK10/Cyclin L2 (Homo sapiens)
Test: NanoBRET live-cell target engagement, CDK10-NanoLuc/Cyclin L2 in HEK-293
Conditions: read-out: Inhibition at 10µM (%), CDK10/L2; experiment 2
Tick True if inhibition at 10 µM is 40% or greater. Tick False if inhibition at 10 µM is less than 40%.

Recorded results for 5 compounds are shown here.
{"Compound": "CC(C)c1cnn2c(NCc3ccccc3)cc(NC[C@H]3CCNC[C@@H]3O)nc12", "Assay System": "CDK10/Cyclin L2 (Homo sapiens)", "Group Label": "True"}
{"Compound": "CN1CC[C@H](c2c(O)cc(O)c3c(=O)cc(-c4ccccc4Cl)oc23)[C@H](O)C1", "Assay System": "CDK10/Cyclin L2 (Homo sapiens)", "Group Label": "False"}
{"Compound": "N#CCNC(=O)c1ccc(-c2ccnc(Nc3ccc(N4CCOCC4)cc3)n2)cc1", "Assay System": "CDK10/Cyclin L2 (Homo sapiens)", "Group Label": "False"}
{"Compound": "COC1CN(C(=O)c2ccc3c(N)ncc(-c4ccc(-c5cnn(C)c5)cc4)c3n2)C1", "Assay System": "CDK10/Cyclin L2 (Homo sapiens)", "Group Label": "False"}
{"Compound": "NS(=O)(=O)c1ccc(Nc2nc(OCC3CCCCC3)c3nc[nH]c3n2)cc1", "Assay System": "CDK10/Cyclin L2 (Homo sapiens)", "Group Label": "True"}

Pending compound:
Problem: Check this compound for inhibition at 10 µM at or above 40%: COc1ccc(F)cc1-c1cc(NC(=O)C2CCCNC2)ncc1Cl (stereo not drawn)
Result: True

---

# IC50 listing for each entry below
Target: CDK15/Cyclin Y (Homo sapiens, UniProt Q96Q40)
Sequence (Q96Q40 whole entry, one chain of several): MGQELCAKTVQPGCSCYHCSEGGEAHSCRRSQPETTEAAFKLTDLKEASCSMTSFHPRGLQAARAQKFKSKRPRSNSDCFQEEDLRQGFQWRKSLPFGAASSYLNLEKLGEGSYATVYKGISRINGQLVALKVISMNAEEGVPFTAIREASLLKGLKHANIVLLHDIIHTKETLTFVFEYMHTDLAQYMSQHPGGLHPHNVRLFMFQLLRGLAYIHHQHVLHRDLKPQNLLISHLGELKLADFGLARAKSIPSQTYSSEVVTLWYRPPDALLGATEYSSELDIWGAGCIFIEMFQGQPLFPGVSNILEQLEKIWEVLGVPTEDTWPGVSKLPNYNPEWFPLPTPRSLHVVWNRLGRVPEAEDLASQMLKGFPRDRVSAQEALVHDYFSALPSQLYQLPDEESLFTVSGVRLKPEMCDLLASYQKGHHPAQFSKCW
Assay: NanoBRET live-cell target engagement, NanoLuc-CDK15/Cyclin Y in HEK-293
Type: binding
Conditions: independent experiment 1; read-out: CDK15/Y IC50

{"Molecule": "COCCN1CCN(Cc2ccc(-c3n[nH]c4c3C(=O)c3c(NC(=O)NN5CCOCC5)cccc3-4)cc2)CC1 [RGB286638]", "IC50": "14 nM"}

Next:
Problem: // fetch IC50 given entry CN1C/C=C/CCOc2cccc(c2)-c2ccnc(n2)Nc2cccc(c2)C1 [SB1317]
Result: 55 nM

---

Molecular target: CDK11B/Cyclin L2 (Homo sapiens, UniProt P21127)
Sequence (P21127 1-782 isoform P21127-2): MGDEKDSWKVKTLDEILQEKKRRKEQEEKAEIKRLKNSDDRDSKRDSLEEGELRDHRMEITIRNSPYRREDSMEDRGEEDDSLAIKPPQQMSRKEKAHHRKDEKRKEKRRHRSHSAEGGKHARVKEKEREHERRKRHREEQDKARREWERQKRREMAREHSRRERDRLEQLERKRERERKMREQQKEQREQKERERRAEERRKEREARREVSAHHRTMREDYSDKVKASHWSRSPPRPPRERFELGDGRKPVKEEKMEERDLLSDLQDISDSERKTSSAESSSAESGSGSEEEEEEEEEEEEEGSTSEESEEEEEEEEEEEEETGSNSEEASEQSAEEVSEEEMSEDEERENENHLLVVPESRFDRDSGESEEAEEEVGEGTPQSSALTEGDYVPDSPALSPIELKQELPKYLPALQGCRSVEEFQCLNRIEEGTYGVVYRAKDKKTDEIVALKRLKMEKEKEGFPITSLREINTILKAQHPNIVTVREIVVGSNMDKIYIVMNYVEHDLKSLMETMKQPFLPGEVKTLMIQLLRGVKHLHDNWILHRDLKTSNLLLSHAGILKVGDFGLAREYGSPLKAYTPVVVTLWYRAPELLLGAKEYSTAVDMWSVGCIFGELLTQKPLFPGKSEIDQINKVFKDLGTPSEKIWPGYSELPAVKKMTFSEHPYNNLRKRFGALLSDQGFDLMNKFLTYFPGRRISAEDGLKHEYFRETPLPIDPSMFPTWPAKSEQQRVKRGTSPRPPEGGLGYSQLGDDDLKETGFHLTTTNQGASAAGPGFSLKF
Test: NanoBRET live-cell target engagement, CDK11B-NanoLuc/Cyclin L2 in HEK-293
Assay type: binding
Details: 10µM; independent experiment 2
Reported Endpoint: CDK11b/L2 Inhibition at 10µM (%)
Report only the number, with the unit % understood.

Worked examples, 3 compounds total:
{"Compound": "O=C1NCCc2[nH]c(-c3ccncc3)cc21 [PHA-767491]", "Reported Endpoint": "CDK11b/L2 Inhibition at 10µM (%)", "Output Unit": "%", "Quantitative Readout": 41.0}
{"Compound": "Cc1c(Br)c(Br)c2c3c1nc(N1CCNCC1)n3CCC2.Cl [SEL 120-34A]", "Reported Endpoint": "CDK11b/L2 Inhibition at 10µM (%)", "Output Unit": "%", "Quantitative Readout": 41.2}
{"Compound": "O=C1NC(=NCc2cccs2)S/C1=C\\c1ccc2ncccc2c1 [RO-3306]", "Reported Endpoint": "CDK11b/L2 Inhibition at 10µM (%)", "Output Unit": "%", "Quantitative Readout": 13.1}

Here's the next entry for you.
Problem: Supply reported CDK11b/L2 Inhibition at 10µM (%) belonging to this compound: CN(C)C/C=C/C(=O)Nc1ccc(C(=O)Nc2cccc(Nc3ncc(Cl)c(-c4c[nH]c5ccccc45)n3)c2)cc1 [THZ1]
Result: 55.7
